assay: Resazurin-based in vitro cytotoxicity with L-6 cells; type: cell-based, rat; details: rat
Attribute: IC50 at 70 h
Just the number please, in µM, no unit attached.

Example compounds with recorded IC50 at 70 h:
Compound	IC50 at 70 h (µM)
O=C(Nc1ccc(N2CCNCC2)cc1)c1cccc(C(F)(F)F)c1 [Compound 66]	41.5
CC(=O)Nc1ccc(Oc2c(C(=O)Nc3ccc(N4CCNCC4)cc3)cccc2C(F)(F)F)cc1 [Compound 63]	113
O=C(Nc1ccc(N2CCNCC2)cc1)c1ccccc1Oc1ccccc1 [Compound 64]	40.6
Nc1cccc(C(=O)Nc2ccc(N3CCNCC3)cc2)c1Oc1ccc(F)cc1 [Compound 65]	157

Kindly review the next compound as well.
Q: Please report IC50 at 70 h for the following compound: CN(C)c1ccc(NC(=O)c2cccc(C(F)(F)F)c2Oc2ccc(F)cc2)cc1 [Compound 36]
Result: 239

---

Attribute: MBC
test system: P. aeruginosa NCTC 13437; experiment: MIC/MBC microbroth dilution (EUCAST); assay type: cell-based; settings: Pseudomonas aeruginosa, NCTC13437

Molecule	MBC
O=C(Nc1ccc(N2CCNCC2)cc1)c1cccc(C(F)(F)F)c1Oc1ccc(F)cc1 [Compound 57]	> 256 µg/mL
O=C(Nc1ccc(N2CCNCC2)cc1)c1ccccc1Oc1ccc(F)cc1 [Compound 59]	> 256 µg/mL
O=C(Nc1ccc(N2CCNCC2)cc1)c1cccc(F)c1Oc1ccc(F)cc1 [Compound 60]	> 256 µg/mL
CN1CCN(C(=O)c2cccc(C(F)(F)F)c2Oc2ccc(F)cc2)CC1 [Compound 49]	> 256 µg/mL

Q: Using P. aeruginosa NCTC 13437 as the test system, report measured MBC of Nc1cccc(C(=O)Nc2ccc(N3CCNCC3)cc2)c1Oc1ccc(F)cc1 [Compound 65] .
Result: > 256 µg/mL

Q: Using P. aeruginosa NCTC 13437 as the test system, report measured MBC of O=C(Nc1ccc(N2CCNCC2)cc1)c1cccc([N+](=O)[O-])c1Oc1ccc(F)cc1 [Compound 61] .
Result: > 256 µg/mL

Q: Using P. aeruginosa NCTC 13437 as the test system, report measured MBC of O=C(Nc1ccc(N2CCNCC2)cc1)c1cccc(C(F)(F)F)c1Oc1ccccc1 [Compound 58] .
Result: > 256 µg/mL

Q: Using P. aeruginosa NCTC 13437 as the test system, report measured MBC of O=C(Nc1ccc(N2CCNCC2)cc1)c1cccc(C(F)(F)F)c1Sc1ccc(F)cc1 [Compound 62] .
Result: > 256 µg/mL

Q: Using P. aeruginosa NCTC 13437 as the test system, report measured MBC of O=C(Nc1ccc(N2CCNCC2)cc1)c1ccccc1Oc1ccccc1 [Compound 64] .
Result: > 256 µg/mL

Q: Using P. aeruginosa NCTC 13437 as the test system, report measured MBC of O=C(c1cccc(C(F)(F)F)c1Oc1ccc(F)cc1)N1CCNCC1 [Compound 52] .
Result: > 256 µg/mL

Q: Using P. aeruginosa NCTC 13437 as the test system, report measured MBC of O=C(Nc1cccc(N2CCNCC2)c1)c1cccc(C(F)(F)F)c1Oc1ccc(F)cc1 [Compound 56] .
Result: > 256 µg/mL

Q: Using P. aeruginosa NCTC 13437 as the test system, report measured MBC of O=C(Nc1ccccc1N1CCNCC1)c1cccc(C(F)(F)F)c1Sc1ccc(F)cc1 [Compound 55] .
Result: > 256 µg/mL

Q: Using P. aeruginosa NCTC 13437 as the test system, report measured MBC of O=C(c1cccc(C(F)(F)F)c1Oc1ccc(F)cc1)N1CCOCC1 [Compound 51] .
Result: > 256 µg/mL
